Test system: muscle progenitors derived from DMD hiPSC
protocolDescription: Myotube assay: total myotube area per well (alpha-actinin staining)
Format: cell-based, human
reportedConditions: Homo sapiens, Myotube, 72 h, myogenic activity, half-maximal generation of myotubes; 10 points dose-response 1.5 nM to 30 µM; 3 days; DMD or WT cell source not given
propertyName: EC50

Example entries and their recorded answers appear below.
molecule | result
CC(C)(C)c1cc(NC(=O)Nc2ccc(Oc3ccncc3)cc2F)n(-c2ccccc2)n1 | 500 to 1000 nM
CSc1cc(Oc2ccnc3[nH]c(=O)ccc23)ccc1NC(=O)Nc1cc(C(C)(C)C)nn1-c1ccccc1 | < 500 nM
CC(C)n1nc(C(C)(C)C)cc1NC(=O)Nc1ccc(Oc2ccnc3[nH]c(=O)cnc23)cc1F | 1000 to 5000 nM
CCOC(=O)Nc1cc(Oc2ccc(NC(=O)Nc3cc(C(C)(C)C)nn3-c3ccccc3)c3ccccc23)ccn1 | < 500 nM
CC(C)(C)c1cc(NC(=O)Nc2cc(F)c(Oc3ccnc4[nH]c(=O)cnc34)cc2F)n(-c2ccccc2)n1 | 500 to 1000 nM
CNC(=O)c1ccc(Oc2cccc(NC(=O)Nc3cc(C(C)(C)C)nn3-c3ccccc3)c2)cn1 | 500 to 1000 nM
CC(C)c1cc(NC(=O)Nc2ccc(Oc3ccnc4[nH]c(=O)cnc34)cc2F)n(-c2ccccc2)n1 | ≥ 5000 nM
CC(C)(C)c1cc(NC(=O)Nc2ccc(Oc3ccccc3)cc2F)n(-c2ccccc2)n1 | 1000 to 5000 nM

EC50 for O=C(Nc1ccc(Oc2ccnc3[nH]c(=O)cnc23)cc1F)Nc1cc(C2CC2)nn1-c1ccccc1 [(e)] is ≥ 5000 nM

EC50 for CSc1cc(NC(=O)Nc2cc(C(C)(C)C)nn2-c2ccccc2)ccc1Oc1ccnc2[nH]c(=O)cnc12 is 500 to 1000 nM

EC50 for CSc1cc(Oc2ccnc3[nH]c(=O)cnc23)ccc1NC(=O)Nc1cc(C(C)(C)C)nn1-c1ccccc1Cl is ≥ 5000 nM

EC50 for O=C(Nc1ccc(Oc2ccnc3[nH]c(=O)cnc23)cc1F)Nc1cc(C2(C(F)(F)F)CC2)nn1-c1ccccc1 is 1000 to 5000 nM

EC50 for CC(C)(C)c1cc(NC(=O)Nc2cccc(Oc3ccnc4[nH]c(=O)cnc34)c2F)n(-c2ccccc2)n1 is ≥ 5000 nM

EC50 for CSc1cc(Oc2ccnc(NS(C)(=O)=O)c2)ccc1NC(=O)Nc1cc(C(C)(C)C)no1 is 1000 to 5000 nM

EC50 for CCC(C)c1cc(NC(=O)Nc2ccc(Oc3ccnc4[nH]c(=O)cnc34)cc2F)n(-c2ccccc2)n1 (stereo not shown) is ≥ 5000 nM

EC50 for CSc1cc(Oc2ccnc3nccnc23)ccc1NC(=O)Nc1cc(C(C)(C)C)nn1-c1ccccc1 is ≥ 5000 nM

###

Form field: EC50 (one value per entry).
System: muscle progenitors derived from DMD hiPSC
protocolDescription: Myotube assay: total myotube area per well (alpha-actinin staining)
Format: cell-based, human
reportedConditions: Homo sapiens, Myotube, 72 h, myogenic activity, half-maximal generation of myotubes; 10 points dose-response 1.5 nM to 30 µM; 3 days; DMD or WT cell source not given

EC50 for Cc1cc(Oc2ccnc3[nH]c(=O)cnc23)ccc1NC(=O)Nc1cc(C(C)(C)C)nn1-c1ccccc1 is ≥ 5000 nM

EC50 for CSc1cc(Oc2ccnc3[nH]c(=O)cnc23)ccc1NC(=O)Nc1nnc(C(C)(C)C)s1 [(z)] is ≥ 5000 nM

EC50 for CC(C)(C)c1cc(NC(=O)Nc2ccc(Oc3ccnc4[nH]c(=O)cnc34)c3ccccc23)n(-c2ccc3ncccc3c2)n1 is < 500 nM

EC50 for CSc1cc(Oc2ccnc3c2CCC(=O)N3)ccc1NC(=O)Nc1cc(C(C)(C)C)nn1-c1ccccc1 is < 500 nM

EC50 for CSc1cc(Oc2ccnc3[nH]c(=O)cnc23)ccc1NC(=O)Nc1cc(C(C)(C)C)nn1-c1ccccn1 is ≥ 5000 nM

EC50 for CNC(=O)c1cc(Oc2ccc(NC(=O)Nc3cc(C(C)(C)C)nn3-c3ccc4ncccc4c3)c3ccccc23)ccn1 is 1000 to 5000 nM

EC50 for CSc1cc(Oc2ccnc3[nH]c(=O)[nH]c23)ccc1NC(=O)Nc1cc(C(C)(C)C)nn1-c1ccccc1 is 1000 to 5000 nM

EC50 for CSc1cc(Oc2ccnc3[nH]c(=O)cnc23)ccc1NC(=O)Nc1cc(C(C)(C)C)nn1-c1ccc(OCCN2CCCCC2)cc1 is < 500 nM

###

Form field: EC50 (one value per entry).
Test system: muscle progenitors derived from DMD hiPSC
protocolDescription: Myotube assay: total myotube area per well (alpha-actinin staining)
Format: cell-based, human
reportedConditions: Homo sapiens, Myotube, 72 h, myogenic activity, half-maximal generation of myotubes; 10 points dose-response 1.5 nM to 30 µM; 3 days; DMD or WT cell source not given

Example entries and their recorded answers appear below.
querySmiles | assayTarget | EC50
Cc1ccc(-n2nc(C(C)(C)C)cc2NC(=O)Nc2ccc(Oc3ccnc4[nH]c(=O)cnc34)cc2C(F)(F)F)cc1 | muscle progenitors derived from DMD hiPSC | 500 to 1000 nM
CSc1cc(Oc2ccnc3[nH]c(=O)cnc23)ccc1NC(=O)Nc1cc(C(C)(C)C)nn1-c1ccc(C#N)cc1 | muscle progenitors derived from DMD hiPSC | < 500 nM
CSc1cc(Oc2ccnc3[nH]c(=O)cnc23)ccc1NC(=O)Nc1nc(-c2ccc(F)c(F)c2)cs1 | muscle progenitors derived from DMD hiPSC | ≥ 5000 nM
CSc1cc(Oc2ccnc3c2CCC(=O)N3)ccc1NC(=O)Nc1cc(C(C)(C)C)nn1-c1ccc(C)cc1 | muscle progenitors derived from DMD hiPSC | < 500 nM
CSc1cc(Oc2ccnc3c2CCC(=O)N3)ccc1NC(=O)Nc1cc(C(C)(C)C)no1 | muscle progenitors derived from DMD hiPSC | 500 to 1000 nM
Cc1cc(NC(=O)Nc2ccc(Oc3ccnc4[nH]c(=O)cnc34)cc2F)n(-c2ccccc2)n1 | muscle progenitors derived from DMD hiPSC | 500 to 1000 nM
O=C(Nc1ccc(Oc2ccnc3[nH]c(=O)cnc23)cc1F)Nc1c(-c2ccccc2)nn2c1CCC2 | muscle progenitors derived from DMD hiPSC | ≥ 5000 nM
CSc1cc(Oc2ccnc3[nH]c(=O)cnc23)ccc1NC(=O)Nc1cc(C(C)(C)C)nn1-c1ccc(CN(C)C)cc1 | muscle progenitors derived from DMD hiPSC | < 500 nM
CC(C)(C)c1cc(NC(=O)Nc2ccc(Oc3ccnc4[nH]c(=O)cnc34)cc2C(F)(F)F)n(-c2ccccc2)n1 | muscle progenitors derived from DMD hiPSC | < 500 nM
CC(=O)n1nc(C(C)(C)C)cc1NC(=O)Nc1ccc(Oc2ccnc3[nH]c(=O)cnc23)cc1F | muscle progenitors derived from DMD hiPSC | ≥ 5000 nM

Summary line: CC(C)(C)c1cc(NC(=O)Nc2ccc(Oc3ccnc4c3CCC(=O)N4)c3ccccc23)on1 , muscle progenitors derived from DMD hiPSC, reported EC50 = < 500 nM

Summary line: CC(C)(C)c1nc(NC(=O)Nc2ccc(Oc3ccnc4[nH]c(=O)cnc34)cc2F)n(-c2ccccc2)n1 , muscle progenitors derived from DMD hiPSC, reported EC50 = 500 to 1000 nM

Summary line: CSc1cc(Oc2ccnc3c2CCC(=O)N3)ccc1NC(=O)Nc1cc(C(C)(C)C)nn1-c1cccc(Cl)c1 , muscle progenitors derived from DMD hiPSC, reported EC50 = < 500 nM

Summary line: CC(C)(C)c1cc(NC(=O)Nc2ccc(Oc3ccnc4[nH]c(=O)cnc34)cc2F)n(-c2ncccn2)n1 , muscle progenitors derived from DMD hiPSC, reported EC50 = ≥ 5000 nM

Summary line: COc1cccc(-n2nc(C(C)(C)C)cc2NC(=O)Nc2ccc(Oc3ccnc4[nH]c(=O)cnc34)cc2SC)c1 , muscle progenitors derived from DMD hiPSC, reported EC50 = 500 to 1000 nM

Summary line: CSc1cc(Oc2ccnc3[nH]c(=O)cnc23)ccc1NC(=O)Nc1cc(C(C)(C)C)nn1-c1ccc(F)c(Cl)c1 , muscle progenitors derived from DMD hiPSC, reported EC50 = 500 to 1000 nM

###

System: muscle progenitors derived from DMD hiPSC
protocolDescription: Myotube assay: total myotube area per well (alpha-actinin staining)
Assay type: cell-based, human
reportedConditions: Homo sapiens, Myotube, 72 h, myogenic activity, half-maximal generation of myotubes; 10 points dose-response 1.5 nM to 30 µM; 3 days; DMD or WT cell source not given
pEC50: −log10 of the molar value.
propertyName: pEC50

compound | pEC50
CNC(=O)c1cc(Oc2ccc(NC(=O)Nc3cc(C(C)(C)C)nn3-c3ccc4ncccc4c3)c(SC)c2)ccn1 [(ag)] | 5.30 to 6.00

pEC50 for CC(C)(C)c1cc(NC(=O)Nc2ccc(Oc3ccnc4[nH]c(=O)cnc34)cc2F)sn1 [(q)] is 5.30 to 6.00

pEC50 for CC(C)c1cc(Oc2ccnc3[nH]c(=O)cnc23)ccc1NC(=O)Nc1cc(C(C)(C)C)nn1-c1ccccc1 [(bk)] is ≤ 5.30

pEC50 for CSc1cc(Oc2ccnc3c2OCCN3)ccc1NC(=O)Nc1cc(C(C)(C)C)nn1-c1ccccc1 [(cy)] is 6.00 to 6.30

pEC50 for CSc1cc(Oc2cccc3[nH]c(=O)cnc23)ccc1NC(=O)Nc1cc(C(C)(C)C)nn1-c1ccccc1 [(bu)] is ≤ 5.30

pEC50 for CSc1cc(Oc2ccnc3[nH]c(=O)cnc23)ccc1NC(=O)Nc1cc(C(C)(C)C)nn1-c1ccc(OCCN2CCOCC2)cc1 [(cf)] is 6.00 to 6.30

pEC50 for CSc1cc(Oc2ccnc3[nH]c(=O)cnc23)ccc1NC(=O)Nc1cc(C(C)(C)C)nn1-c1ccc(OCCCN(C)C)cc1 [(cr)] is > 6.30
